# experimental-target: Gal(b1-3)Gal(b1-4)GlcNAc
# test-method-notes: glycan array binding signal (z-score within array); higher = stronger binding
# cond: glycan notation: IUPAC condensed, linker removed
Shown is part of a subset that was picked to be rich in the strongest signals.
measure: glycan array binding signal (z-score)

Inquiry: Request the reported glycan array binding signal (z-score) associated with LlpA (Arthrobacter sp) (protein) MGSSHHHHHHSSGLVPRGSHMTLHPETALRPGAAATSPNSRYRLLYQTDGNLVLYGPDGPLWDSGTNGHGAGACIMQADGNLVLYGPNDEYVWDTETDNNPGSRLVIQDDGNAVIYRPDGSPLWATETCQPPGSADSHVLQSGSTLTPTHGIRSANGLYGLLYQTDGNLVFYGPDGPLWDSGTNGRGAGACIMQPDGNLVLYGPHDEYVWDTETDNNPGSRLVIQDDGNAVIYRPDGNPTWVTGTH
Reply text: 0.043

Inquiry: # iterate: EULS2 M2 (Oryza sativa) (protein) MVYCRANPNYAMTARNGAVVLAPANPKDEYQHWIKDMRWSTSIKDEEGYPAFALVNKATGQAIKHSLGQSHPVRLVPYNPEVMDESVLWTESRDVGNGFRCIRMVNNIYLNFDAFHGDKYHGGVRDGTDIVLWKLCEGDSQRWKIQPYYILEQKLISEEDLNSAVDHHHHHH
Reply text: -0.911

Inquiry: # iterate: PNA (Arachis hypogaea), P02872 (protein) MKPFCVFLTFFLLLAASSKKVDSAETVSFNFNSFSEGNPAINFQGDVTVLSNGNIQLTNLNKVNSVGRVLYAMPVRIWSSATGNVASFLTSFSFEMKDIKDYDPADGIIFFIAPEDTQIPAGSIGGGTLGVSDTKGAGHFVGVEFDTYSNSEYNDPPTDHVGIDVNSVDSVKTVPWNSVSGAVVKVTVIYDSSTKTLSVAVTNDNGDITTIAQVVDLKAKLPERVKFGFSASGSLGGRQIHLIRSWSFTSTLITTTRRSIDNNEKKIMNMASA
Reply text: -0.001

The measured values listed here are drawn from the supplement of paper PMC8728848.
